Field: GTP binding, percent of control. Provide a value for each of the compounds that follow.
Target: GTPase HRas (Homo sapiens) (UniProt P01112)
Sequence (P01112 whole entry, looked up): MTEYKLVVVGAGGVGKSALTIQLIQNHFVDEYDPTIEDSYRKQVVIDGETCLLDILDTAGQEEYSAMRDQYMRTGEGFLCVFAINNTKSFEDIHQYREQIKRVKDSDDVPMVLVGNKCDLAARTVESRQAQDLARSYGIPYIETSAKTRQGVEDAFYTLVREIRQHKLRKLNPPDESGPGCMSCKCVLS
Test: Ras wt fluorescent GTP loading blockade – biochemical, wildtype, multiplex bead flow cytometry, dose response (AID 1335)
Conditions: bead-based flow cytometry, Bodipy-GTP binding to GST-Ras; at 100 µM (top of the series) unless noted
Answers are plain numbers, in %.

Worked examples follow.
[
  {
    "COMPOUND": "O=C(O)c1ccccc1NCCc1ccc(Cl)cc1",
    "STUDY_TARGET": "GTPase HRas (Homo sapiens) (UniProt P01112)",
    "ENDPOINT_UNIT": "%",
    "GTP binding, percent of control": 87
  },
  {
    "COMPOUND": "Cc1ccc(/C=C2\\SC(=S)N(C(Cc3ccccc3)C(=O)O)C2=O)cc1 (stereo not given)",
    "STUDY_TARGET": "GTPase HRas (Homo sapiens) (UniProt P01112)",
    "ENDPOINT_UNIT": "%",
    "GTP binding, percent of control": 81.2
  },
  {
    "COMPOUND": "COc1cccc(N=Nc2c(N)[nH]n3c(=O)c4c(nc23)CCCC4)c1",
    "STUDY_TARGET": "GTPase HRas (Homo sapiens) (UniProt P01112)",
    "ENDPOINT_UNIT": "%",
    "GTP binding, percent of control": 66.9
  },
  {
    "COMPOUND": "COc1cc(/C=N\\NC(=O)c2ccc(Cn3nc([N+](=O)[O-])c(Cl)c3C)o2)ccc1O",
    "STUDY_TARGET": "GTPase HRas (Homo sapiens) (UniProt P01112)",
    "ENDPOINT_UNIT": "%",
    "GTP binding, percent of control": 82
  }
]

Write down GTP binding, percent of control measured for item `N#C/C(=C/c1ccc(O)c([N+](=O)[O-])c1)C(=O)Nc1ccccc1`
77.4

* * *

Molecular target: Integrin beta-1 (Homo sapiens) + Integrin alpha-4 (Homo sapiens) (UniProt P13612+P05556)
Sequence (P05556 whole entry, looked up): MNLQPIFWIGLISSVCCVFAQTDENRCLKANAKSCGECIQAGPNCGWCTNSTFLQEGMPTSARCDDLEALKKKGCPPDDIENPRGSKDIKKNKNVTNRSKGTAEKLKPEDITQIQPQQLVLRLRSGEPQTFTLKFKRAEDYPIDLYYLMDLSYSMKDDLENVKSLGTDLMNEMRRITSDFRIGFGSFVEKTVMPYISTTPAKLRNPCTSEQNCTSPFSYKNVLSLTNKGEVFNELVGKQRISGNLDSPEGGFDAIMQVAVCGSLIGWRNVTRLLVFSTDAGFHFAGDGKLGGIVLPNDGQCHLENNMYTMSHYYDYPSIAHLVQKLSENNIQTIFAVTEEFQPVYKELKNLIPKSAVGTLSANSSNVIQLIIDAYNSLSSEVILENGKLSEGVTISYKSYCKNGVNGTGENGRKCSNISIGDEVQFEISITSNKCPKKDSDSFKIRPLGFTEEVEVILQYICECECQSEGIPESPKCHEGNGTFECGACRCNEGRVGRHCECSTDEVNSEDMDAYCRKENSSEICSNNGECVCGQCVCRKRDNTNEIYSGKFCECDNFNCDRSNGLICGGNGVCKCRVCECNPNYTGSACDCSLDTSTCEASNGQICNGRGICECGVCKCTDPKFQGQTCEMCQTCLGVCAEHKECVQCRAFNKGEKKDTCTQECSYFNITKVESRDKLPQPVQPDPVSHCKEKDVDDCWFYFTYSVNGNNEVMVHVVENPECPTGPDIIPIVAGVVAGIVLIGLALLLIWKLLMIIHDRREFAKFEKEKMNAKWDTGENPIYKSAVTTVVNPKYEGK
Sequence (P13612 whole entry, looked up): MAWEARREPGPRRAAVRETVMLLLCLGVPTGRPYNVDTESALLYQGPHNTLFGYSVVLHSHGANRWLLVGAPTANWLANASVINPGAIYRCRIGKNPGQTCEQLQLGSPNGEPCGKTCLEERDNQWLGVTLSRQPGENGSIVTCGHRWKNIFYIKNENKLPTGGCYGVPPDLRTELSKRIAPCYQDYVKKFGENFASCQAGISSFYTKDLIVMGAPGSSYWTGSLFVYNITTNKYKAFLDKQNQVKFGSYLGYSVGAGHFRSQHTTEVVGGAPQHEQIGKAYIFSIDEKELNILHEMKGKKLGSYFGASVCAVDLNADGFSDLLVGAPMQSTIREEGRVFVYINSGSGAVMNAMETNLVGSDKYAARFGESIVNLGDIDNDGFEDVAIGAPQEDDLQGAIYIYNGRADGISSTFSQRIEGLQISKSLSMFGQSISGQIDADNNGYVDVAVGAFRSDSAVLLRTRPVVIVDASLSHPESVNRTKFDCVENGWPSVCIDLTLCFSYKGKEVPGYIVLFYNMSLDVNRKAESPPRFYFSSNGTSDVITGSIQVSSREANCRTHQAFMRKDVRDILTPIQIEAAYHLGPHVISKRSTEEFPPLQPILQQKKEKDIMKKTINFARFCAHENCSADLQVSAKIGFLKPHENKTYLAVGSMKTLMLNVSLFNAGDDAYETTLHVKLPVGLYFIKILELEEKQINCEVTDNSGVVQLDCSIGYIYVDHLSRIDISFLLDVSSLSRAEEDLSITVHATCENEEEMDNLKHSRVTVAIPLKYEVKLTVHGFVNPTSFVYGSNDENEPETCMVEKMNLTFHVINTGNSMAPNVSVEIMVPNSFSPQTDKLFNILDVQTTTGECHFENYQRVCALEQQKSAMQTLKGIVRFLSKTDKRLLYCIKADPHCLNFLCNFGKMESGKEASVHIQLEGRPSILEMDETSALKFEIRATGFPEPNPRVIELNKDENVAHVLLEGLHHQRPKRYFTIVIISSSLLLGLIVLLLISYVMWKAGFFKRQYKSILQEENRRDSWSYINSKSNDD
Assay: alpha4beta1 integrin LIBS antibody binding reduction – U937 cells, HUTS-21 mAb, flow cytometry, validation set, VLA-4 allosteric modulator project, pilot screen (AID 2674);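 further: antibody binding induced by the VLA-4 ligand LDV present at three times its Kd; 0% = LDV ligand with antibody and no compound and 100% = antibody without LDV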
Conditions: HUTS-21 LIBS mAb binding, at 6.7 µM, stronger effect = higher value, binding induced by LDV ligand
MEASUREMENT_KIND: inhibition (%)
Answers are plain numbers, in %.

Sample answers from the record:
[
  {
    "COMPOUND": "CC(C)(C)OC(=O)NCCC(=O)Oc1ccc2ccc(=O)oc2c1",
    "inhibition, %": -1.79
  },
  {
    "COMPOUND": "CCOC(=O)c1cc2c(nc1N)CC(C)(CC)OC2 (stereo unspecified)",
    "inhibition, %": 9.13
  },
  {
    "COMPOUND": "O=c1cc(CN2CCN(c3cccc(Cl)c3)CC2)c2cc(O)c(-c3ccccc3)cc2o1",
    "inhibition, %": 0.64
  },
  {
    "COMPOUND": "O=C(NCc1ccc(N2CCCC2=O)cc1)c1cccc(Cl)c1",
    "inhibition, %": -1.49
  }
]

Give inhibition for each listed item.
1. CC(C)COCC1CC2(CC(C)(c3csc(N)n3)OC2=O)C(=O)O1 (stereo unspecified)
2. CN1CCCN(C(c2ccccc2)c2ccc(Cl)cc2)CC1 (stereo unspecified)

-9.79
39.8

* * *

Kindly supply the reported response values for the records listed here.
Assay: cytosolic pH regulators acting via V-ATPase – S. cerevisiae, pHLuorin, HTS validation (AID 504600);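 further: plate controls were DMSO for no effect and reference compound for full effect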
Settings: V-ATPase proton transport, at 10 µM, stronger effect = higher value
The source made the active and inactive calls. Cut-off read from the data, not from the text of the source: active = response above about 15%; inactive = the rest.

[
  {
    "MOLECULE": "CC1(C)[C@@H](O)CC[C@]2(C)[C@H]3C(=O)C=C4[C@@H]5C[C@@](C)(C(=O)O)CC[C@]5(C)CC[C@@]4(C)[C@]3(C)CC[C@@H]12",
    "response": "0.36% (inactive)"
  },
  {
    "MOLECULE": "C#CCN1C(=O)C(O)(c2c(C)[nH]c3ccccc23)c2ccccc21 (stereo not given)",
    "response": "-0.83% (inactive)"
  },
  {
    "MOLECULE": "Cc1[nH]c2ccccc2c1C(=O)C(=O)NCc1ccco1",
    "response": "-4.14% (inactive)"
  },
  {
    "MOLECULE": "CC(=O)[C@H]1CC[C@H]2[C@@H]3CCC4=CC(=O)CC[C@]4(C)[C@H]3CC[C@]12C",
    "response": "5.39% (inactive)"
  },
  {
    "MOLECULE": "CCC(C)NCCOc1ccccc1C (stereo not given)",
    "response": "-2.79% (inactive)"
  },
  {
    "MOLECULE": "CC(C)c1ccc(OCc2ccc(C(=O)O)o2)cc1",
    "response": "13.4% (inactive)"
  },
  {
    "MOLECULE": "CC(C)C(=O)Nc1ccc2c3c(cccc13)CC2",
    "response": "-2.45% (inactive)"
  },
  {
    "MOLECULE": "Cc1cccc2c1CC(C)(C)N/C2=C\\C(N)=O",
    "response": "-3.68% (inactive)"
  }
]

Parameter requested: response. Apply to each item below.
1. NS(=O)(=O)c1cc2c(cc1C(F)(F)F)NC(Cc1ccccc1)NS2(=O)=O (stereo not given)
2. Cn1cc(CN2CCC(C(=O)N3CCCCC3)CC2)c(-c2ccccc2F)n1

-2.03% (inactive)
-1.21% (inactive)

* * *

Tested on: anti-desmoglein-3 scFv antibody binding to human DSG3
Assay: blockers of pathogenic pemphigus antibody–desmoglein-3 binding – biochemical, validation compound set, bead-based, flow cytometry, pilot screen (AID 588368);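 further: signal is the median channel fluorescence of bead-bound GFP antibody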
Conditions: Protein G beads, DSG3-Fc, scFv-GFP binding, at 10 µM, stronger effect = lower value
MEASUREMENT_KIND: binding (% of control) (%)
Numbers only, in %.

Sample answers from the record:
[
  {
    "MOLECULE": "O=c1cc(CN2CCN(c3cccc(Cl)c3)CC2)c2cc(O)c(-c3ccccc3)cc2o1",
    "STUDY_TARGET": "anti-desmoglein-3 scFv antibody binding to human DSG3",
    "ENDPOINT_UNIT": "%",
    "binding (% of control)": 97.8
  },
  {
    "MOLECULE": "CS(=O)(=O)Nc1cccc(C(=O)CC2(O)C(=O)Nc3ccc(Br)cc32)c1 (stereo not given)",
    "STUDY_TARGET": "anti-desmoglein-3 scFv antibody binding to human DSG3",
    "ENDPOINT_UNIT": "%",
    "binding (% of control)": 101
  },
  {
    "MOLECULE": "COc1ccccc1CCn1cnc2c3cc(C)ccc3n(C)c2c1=O",
    "STUDY_TARGET": "anti-desmoglein-3 scFv antibody binding to human DSG3",
    "ENDPOINT_UNIT": "%",
    "binding (% of control)": 101
  },
  {
    "MOLECULE": "CC(=O)[C@@]1(O)CC[C@H]2[C@@H]3C[C@H](C)C4=CC(=O)CC[C@]4(C)[C@H]3CC[C@@]21C",
    "STUDY_TARGET": "anti-desmoglein-3 scFv antibody binding to human DSG3",
    "ENDPOINT_UNIT": "%",
    "binding (% of control)": 102
  },
  {
    "MOLECULE": "CCOc1cc2c3c(c1)C(C)=CC(C)(C)N3C(=O)C2=O",
    "STUDY_TARGET": "anti-desmoglein-3 scFv antibody binding to human DSG3",
    "ENDPOINT_UNIT": "%",
    "binding (% of control)": 101
  },
  {
    "MOLECULE": "COc1cccc2c(O)cc(=O)n(C)c12",
    "STUDY_TARGET": "anti-desmoglein-3 scFv antibody binding to human DSG3",
    "ENDPOINT_UNIT": "%",
    "binding (% of control)": 101
  }
]

Kindly give each listed record's binding (% of control).
1. OCCOCCN1CCN(C(c2ccccc2)c2ccc(Cl)cc2)CC1 (stereo not given)
2. CCCCCC(=O)O[C@]1(C(C)=O)CC[C@H]2[C@@H]3CCC4=CC(=O)CC[C@]4(C)[C@H]3CC[C@@]21C
3. Cc1c(NC(=O)c2cccs2)cccc1[N+](=O)[O-]
4. CC(=O)Nc1ccc(S(=O)(=O)c2ccc(N)cc2)cc1

1: 110; 2: 105; 3: 104; 4: 101

* * *

Target: Cell division control protein 42 homolog (Homo sapiens) (UniProt P60953)
Sequence (P60953 whole entry, looked up): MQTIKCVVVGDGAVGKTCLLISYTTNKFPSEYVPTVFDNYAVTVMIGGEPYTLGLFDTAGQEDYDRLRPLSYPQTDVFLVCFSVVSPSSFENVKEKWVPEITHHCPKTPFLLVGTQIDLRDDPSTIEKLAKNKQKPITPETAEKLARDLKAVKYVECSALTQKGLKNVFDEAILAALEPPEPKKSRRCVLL
Assay: inhibition of fluorescent GTP binding to wildtype Cdc42 – biochemical, multiplex bead flow cytometry, Bodipy-FL-GTP, dose response (AID 1334)
Conditions: bead-based flow cytometry, Bodipy-FL-GTP binding to GST-Cdc42; at 100 µM (top of the series) unless noted
Results with a measured potency or affinity are listed apart.
Criterion: fluorescence, percent of control (lower = inhibition) strictly under 90%. Met: t. Not met: f.

Previously resolved entries follow.
[
  {
    "SMILES_DATA": "Cc1nnc(N2CCOCC2)c2nn(-c3cccc(Cl)c3)c(C)c12",
    "CATEGORY": "f"
  },
  {
    "SMILES_DATA": "COc1ccc(C(=O)/C=C/Nc2ccc(S(=O)(=O)Nc3nc(C)cc(C)n3)cc2)cc1OC",
    "CATEGORY": "t"
  },
  {
    "SMILES_DATA": "Cc1c(NS(=O)(=O)c2ccc3c(c2)Cc2ccccc2-3)c(=O)n(-c2ccccc2)n1C",
    "CATEGORY": "t"
  }
]

# ---- query compound ----
State whether 90% exceeds fluorescence, percent of control (lower = inhibition) recorded for `O=S(=O)(Nc1cccc(-c2cn3cccnc3n2)c1)c1ccccc1` .
t
